Data provenance is ChEMBL document CHEMBL1201862.

System: PC-3
assay method text: NCI tumour cell line growth inhibition, 48 h
Active and inactive are the calls of the source. Rule as the data show it: active = GI50 up to about 1.1 µM and inactive = higher.
metric: GI50

Here is how some compounds turned out for GI50.
compound	GI50
CCOC1=NC(C(F)(F)F)(C(F)(F)F)N=C(N2CCOCC2)O1	> 100 µM (inactive)
Cn1nc(-c2ccc(S(=O)(=O)N/C(=N/c3ccc(Cl)cc3)NN)s2)cc1C(F)(F)F	16.9 µM (inactive)

Hi! Can you tell me GI50 for each of these compounds?
1. CCCCCCCCCCCC(=O)OCC(O)CO (stereo not drawn) [GLYCEROL MONOLAURATE]
2. Cn1c(=O)c2c(ncn2CCSS(=O)(=O)O)n(C)c1=O
3. COc1ccc(C2=C(OC(=O)N(C)C)c3cccn3-c3cc(Cl)ccc3S2)cc1
4. CC(=O)C1(C(=O)C(=[N+]=[N-])S(=O)(=O)c2ccccc2)CC1

["> 100 µM (inactive)", "> 100 µM (inactive)", "5.64 µM (inactive)", "> 100 µM (inactive)"]

Hi! Can you tell me GI50 for each of these compounds?
1. Cc1ccc(-c2cc(-c3cc(-c4ccc(C)cc4C)[nH]n3)[nH]n2)c(C)c1
2. S=C1N(c2ccc(Cl)cc2)C2=C(/N=N/c3ccccc3)C(=Nc3ccccc3S2)N1c1ccccn1

["15.1 µM (inactive)", "13.2 µM (inactive)"]

Hi! Can you tell me GI50 for each of these compounds?
1. C[N+](C)(C)CC1CCc2ccccc2C1=O (stereo not drawn)
2. CC1(C(=O)O)CCC2(C)CCC3(C)C(=CC(=O)C4C5(C)CCC(O)C(C)(C)C5CCC43C)C2C1 (stereo not drawn)
3. COc1nn(Cc2ccccn2)c2ccc([N+](=O)[O-])cc12
4. O=c1[nH]nc(Cc2ccccc2)[nH]1
5. Cc1cc(NS(=O)(=O)c2ccc(NO)cc2)no1
6. C=CCCCC1CCCNC1=S (stereo not drawn)

["15.5 µM (inactive)", "36.1 µM (inactive)", "> 100 µM (inactive)", "> 100 µM (inactive)", "> 100 µM (inactive)", "> 100 µM (inactive)"]

Hi! Can you tell me GI50 for each of these compounds?
1. C=C1C(=O)OC2/C=C(/C)C3(O)OC(C)(CC(OC(=O)C(C)C)C12)CC3OC(C)=O (stereo not drawn)
2. ClC1=C(Cc2ccccc2)Cc2ccc3c(c21)CCC3
3. Cc1occc1/C(S)=N\c1ccc(Cl)c(COC(C)(C)C)c1
4. COC(=O)CCc1cc(OC)c(O)c(C(Cc2ccc(OC)c(OC)c2)C(=O)OC)c1 (stereo not drawn)
5. O=[N+]([O-])C(/C=C(\Cl)[N+](=O)[O-])=C(N1CCOCC1)N1CCOCC1
6. COc1cc(/C=N/N=C(\N)NO)cc(OC)c1OC
7. O=c1c(/C=C/c2c(O)ccc3ccccc23)nnc2sc(-c3cccc(Br)c3)nn12

1: 13.7 µM (inactive); 2: 32.3 µM (inactive); 3: 14.5 µM (inactive); 4: > 100 µM (inactive); 5: > 100 µM (inactive); 6: 44.6 µM (inactive); 7: 22.4 µM (inactive)
